Origin of measurements: ChEMBL document CHEMBL2169805

# assay.info: Oral bioavailability in rat
# Type: ADME, organism-based
# condition.info: in vivo
This listing pairs molecules with measured bioavailability.
Numbers only here, please. The scale is %.

// field: bioavailability; key: CS(=O)(=O)c1cccc(C(=O)N2CCC(N3CCC(Oc4ccc(Cl)c(Cl)c4)CC3)CC2)c1 ; value = 50

// field: bioavailability; key: O=C(c1c[nH]c(=O)c2ccccc12)N1CCC(N2CCC(Oc3ccc(Cl)c(Cl)c3)CC2)CC1 ; value = 50

====

# assayed.target: hERG (KCNH2) (Homo sapiens)
# Sequence (Q12809 whole entry): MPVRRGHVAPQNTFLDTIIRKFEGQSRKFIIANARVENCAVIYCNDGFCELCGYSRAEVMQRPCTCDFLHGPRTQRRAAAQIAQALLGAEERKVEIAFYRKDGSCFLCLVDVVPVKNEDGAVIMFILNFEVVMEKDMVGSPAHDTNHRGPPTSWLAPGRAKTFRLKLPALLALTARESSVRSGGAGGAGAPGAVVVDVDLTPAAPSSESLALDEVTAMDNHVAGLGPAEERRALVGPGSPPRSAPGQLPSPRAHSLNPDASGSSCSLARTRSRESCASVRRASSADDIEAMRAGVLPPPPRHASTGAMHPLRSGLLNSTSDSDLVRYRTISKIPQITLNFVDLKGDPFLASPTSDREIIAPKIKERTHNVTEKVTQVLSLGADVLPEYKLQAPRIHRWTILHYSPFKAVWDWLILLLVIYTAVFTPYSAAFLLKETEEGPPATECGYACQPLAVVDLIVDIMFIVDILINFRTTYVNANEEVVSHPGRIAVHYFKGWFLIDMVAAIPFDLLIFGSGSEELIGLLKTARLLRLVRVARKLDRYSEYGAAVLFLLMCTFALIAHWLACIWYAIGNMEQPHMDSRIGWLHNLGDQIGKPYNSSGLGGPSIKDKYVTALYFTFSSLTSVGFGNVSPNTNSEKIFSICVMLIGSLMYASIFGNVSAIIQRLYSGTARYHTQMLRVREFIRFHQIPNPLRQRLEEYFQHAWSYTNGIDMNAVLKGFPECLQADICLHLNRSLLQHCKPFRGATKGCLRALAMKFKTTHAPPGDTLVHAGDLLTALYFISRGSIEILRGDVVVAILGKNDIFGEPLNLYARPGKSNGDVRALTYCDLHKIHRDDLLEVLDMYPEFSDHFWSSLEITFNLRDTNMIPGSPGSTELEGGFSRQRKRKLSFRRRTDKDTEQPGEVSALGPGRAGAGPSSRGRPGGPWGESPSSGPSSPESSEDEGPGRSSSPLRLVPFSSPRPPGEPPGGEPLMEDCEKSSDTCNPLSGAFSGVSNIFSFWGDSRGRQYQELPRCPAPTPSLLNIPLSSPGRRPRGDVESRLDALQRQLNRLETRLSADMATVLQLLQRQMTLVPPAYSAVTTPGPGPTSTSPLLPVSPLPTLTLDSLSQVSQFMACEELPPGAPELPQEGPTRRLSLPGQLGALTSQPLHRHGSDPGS
# assay.info: Inhibition of human ERG expressed in HEK293 cells at 10 uM by electrophysiological ion flux assay
# Assay type: cell-based
# condition.info: HEK293 cells expressing human ERG
parameter.measured: inhibition at 10 µM
Enter the number, and then the unit.

// field: inhibition at 10 µM; key: O=C(O)COc1cccc(C(=O)N2CCC(N3CCC(Oc4ccc(Cl)c(Cl)c4)CC3)CC2)c1 ; value = 15%

====

# assayed.target: C-C chemokine receptor type 3 (Homo sapiens, UniProt P51677)
# Sequence (P51677 whole entry): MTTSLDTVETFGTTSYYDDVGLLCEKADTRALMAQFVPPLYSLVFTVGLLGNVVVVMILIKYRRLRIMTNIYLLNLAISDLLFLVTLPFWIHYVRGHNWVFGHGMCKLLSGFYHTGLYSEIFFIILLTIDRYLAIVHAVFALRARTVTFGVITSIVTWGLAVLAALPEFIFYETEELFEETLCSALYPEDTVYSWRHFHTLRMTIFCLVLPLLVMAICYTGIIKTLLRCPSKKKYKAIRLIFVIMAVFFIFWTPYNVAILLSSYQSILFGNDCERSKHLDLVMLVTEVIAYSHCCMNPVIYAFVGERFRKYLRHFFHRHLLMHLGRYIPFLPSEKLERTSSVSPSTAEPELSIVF
parameter.measured: log10(Ki) (log10 of the value in nM)
// units: nM (pre-log); metric: Ki; scale: log10

Recorded log10(Ki), per entry:
{"columns": ["chemical.string", "assayed.target", "log10(Ki)"],
 "data": [
  ["O=C(O)CCCS(=O)(=O)c1cccc(C(=O)N2CCC(N3CCC(Oc4ccc(Cl)c(Cl)c4)CC3)CC2)c1", "C-C chemokine receptor type 3 (Homo sapiens, UniProt P51677)", 1.90],
  ["Cc1cccc(S(=O)(=O)NC(=O)N2CCC(N3CCC(Oc4ccc(Cl)c(Cl)c4)CC3)CC2)c1", "C-C chemokine receptor type 3 (Homo sapiens, UniProt P51677)", 2.10],
  ["Cc1ccc(S(=O)(=O)NC(=O)N2CCC(N3CCC(Oc4ccc(F)c(F)c4)CC3)CC2)cc1", "C-C chemokine receptor type 3 (Homo sapiens, UniProt P51677)", 2.80],
  ["Cc1c(Cl)ccc(OC2CCN(C3CCN(S(=O)(=O)NC(=O)c4ccccc4)CC3)CC2)c1Cl", "C-C chemokine receptor type 3 (Homo sapiens, UniProt P51677)", 1.10],
  ["Cc1ccc(S(=O)(=O)NC(=O)N2CCC(N3CCC(Oc4ccc(Cl)cc4Cl)CC3)CC2)cc1", "C-C chemokine receptor type 3 (Homo sapiens, UniProt P51677)", 1.40],
  ["Cc1ccc(S(=O)(=O)NC(=O)N2CCC(N3CCC(Oc4ccc(Cl)cc4C)CC3)CC2)cc1", "C-C chemokine receptor type 3 (Homo sapiens, UniProt P51677)", 0.90],
  ["O=C(O)CCCCn1nnc(-c2ccc(C(=O)N3CCC(N4CCC(Oc5ccc(Cl)c(Cl)c5)CC4)CC3)cc2)n1", "C-C chemokine receptor type 3 (Homo sapiens, UniProt P51677)", 2.60]
]}

// field: log10(Ki); key: Cc1c(Cl)ccc(OC2CCN(C3CCN(C(=O)c4cccc(S(C)(=O)=O)c4)CC3)CC2)c1Cl ; value = 0.70
